molecular target: Adenosine receptor A1 (Homo sapiens); assay: Displacement of [3H]DPCPX from human adenosine A1 receptor expressed in CHO cells at 1 uM; format: cell-based
measurementKind: inhibition (%)

Examples from the recorded data:
1. COc1cccc(-c2cc(NC(C)=O)nc(-c3cccc(OC)c3OC)n2)c1OC :: 10
2. COc1ccc(-c2cc(NC(C)=O)nc(-c3ccc(OC)c(OC)c3)n2)cc1OC :: 10
3. COc1ccc(-c2cc(NC(C)=O)nc(-c3ccc(OC)cc3OC)n2)c(OC)c1 :: 3

(I) COc1ccccc1-c1cc(NC(C)=O)nc(-c2ccccc2OC)n1
(II) COc1cc(OC)cc(-c2cc(NC(C)=O)nc(-c3cc(OC)cc(OC)c3)n2)c1
(III) CC(=O)Nc1cc(-c2ccc(OC(F)(F)F)cc2)nc(-c2ccc(OC(F)(F)F)cc2)n1
**Query** // ranking: key=inhibition, reverse=True Show the ranking through the labels, in the order asked for.
**Result** II, III, I

---

Target: Adenosine receptor A3 (Homo sapiens, UniProt P0DMS8)
Sequence (P0DMS8 whole entry): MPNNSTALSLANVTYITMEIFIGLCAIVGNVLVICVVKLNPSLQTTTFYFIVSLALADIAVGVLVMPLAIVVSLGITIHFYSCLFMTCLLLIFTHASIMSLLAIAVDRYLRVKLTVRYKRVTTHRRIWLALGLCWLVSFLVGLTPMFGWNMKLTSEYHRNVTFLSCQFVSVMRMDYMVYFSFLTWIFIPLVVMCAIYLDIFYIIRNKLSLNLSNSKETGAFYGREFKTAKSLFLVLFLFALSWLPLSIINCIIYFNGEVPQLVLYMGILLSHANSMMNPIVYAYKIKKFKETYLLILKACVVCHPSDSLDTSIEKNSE
pKi: −log10 of the molar value.
measurementKind: pKi

1) COc1cccc(-c2cc(NC(C)=O)nc(-c3cccc(OC)c3OC)n2)c1OC :: 7.37

(I) COc1ccc(/C=C/c2cc(NC(C)=O)nc(/C=C/c3ccc(OC)cc3)n2)cc1
(II) COc1cccc(-c2cc(NC(C)=O)nc(-c3cccc(OC)c3)n2)c1
(III) COc1cc(OC)cc(-c2cc(NC(C)=O)nc(-c3cc(OC)cc(OC)c3)n2)c1
**Query** // sort entries: pKi, high to low Give the labels in the order specified.
**Result** II, III, I

---

biological target: Adenosine receptor A2a (Homo sapiens); test: Displacement of [3H]4-(2-[7-Amino-2-(2-furyl) [1,2,4]triazolo[2,3-alpha] [1,3,5]triazin-5-ylamino]ethyl)phenol from human adenosine A2A receptor expressed in human HeLa cells at 1 uM; type: cell-based
measurementKind: inhibition (%)

1) CC(=O)Nc1cc(-c2ccc(OC(F)(F)F)cc2)nc(-c2ccc(OC(F)(F)F)cc2)n1 :: 1
2) COc1cc(-c2cc(NC(C)=O)nc(-c3cc(OC)c(OC)c(OC)c3)n2)cc(OC)c1OC :: 1

(I) COc1ccc(OC)c(-c2cc(NC(C)=O)nc(-c3cc(OC)ccc3OC)n2)c1
(II) COc1ccc(-c2cc(NC(C)=O)nc(-c3ccc(OC)cc3OC)n2)c(OC)c1
(III) COc1cccc(OC)c1-c1cc(NC(C)=O)nc(-c2c(OC)cccc2OC)n1
**Query** Sort ascending by inhibition. Provide the ranking by listing each label in its place in the requested order.
**Result** III, II, I
(III: 1%, II: 10%, I: 17%)

---

target: Adenosine receptor A2a (Homo sapiens); assay: Displacement of [3H]4-(2-[7-Amino-2-(2-furyl) [1,2,4]triazolo[2,3-alpha] [1,3,5]triazin-5-ylamino]ethyl)phenol from human adenosine A2A receptor expressed in human HeLa cells at 1 uM; assay type: cell-based
measurementKind: inhibition (%)

// known answers, use as guide
1. COc1ccc(-c2cc(NC(C)=O)nc(-c3ccc(OC)cc3)n2)cc1 :: 4
2. COc1ccccc1-c1cc(NC(C)=O)nc(-c2ccccc2OC)n1 :: 15

(I) COc1ccc(/C=C/c2cc(NC(C)=O)nc(/C=C/c3ccc(OC)cc3)n2)cc1
(II) CCOc1ccc(-c2cc(NC(C)=O)nc(-c3ccc(OCC)cc3)n2)cc1
(III) COc1ccc(-c2cc(NC(C)=O)nc(-c3ccc(OC)c(OC)c3)n2)cc1OC
(IV) COc1cc(OC)cc(-c2cc(NC(C)=O)nc(-c3cc(OC)cc(OC)c3)n2)c1
**Query** Hi! Can you put these in order of inhibition, lowest number first? The reply should contain the labels ordered as requested.
**Result** II, IV, III, I
(II: 2%, IV: 3%, III: 5%, I: 13%)

---

target: Adenosine receptor A2b (Homo sapiens, UniProt P29275); assay: Displacement of [3H]DPCPX from human adenosine A2B receptor expressed in HEK-293 cells; assay type: cell-based, HEK293
Sequence (P29275 whole entry): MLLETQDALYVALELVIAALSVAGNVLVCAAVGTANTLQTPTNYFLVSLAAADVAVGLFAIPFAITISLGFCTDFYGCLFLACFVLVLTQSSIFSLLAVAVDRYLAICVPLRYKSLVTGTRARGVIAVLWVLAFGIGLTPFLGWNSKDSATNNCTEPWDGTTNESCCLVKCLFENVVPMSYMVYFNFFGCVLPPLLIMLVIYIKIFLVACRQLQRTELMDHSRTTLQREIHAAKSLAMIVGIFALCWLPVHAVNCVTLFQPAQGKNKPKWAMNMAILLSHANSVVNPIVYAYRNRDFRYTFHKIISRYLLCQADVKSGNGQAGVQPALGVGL
measurementKind: Ki (µM)
Field format: number, assumed µM, no unit text.

**Query** Which measured Ki value corresponds to COc1cccc(-c2cc(NC(C)=O)nc(-c3cccc(OC)c3)n2)c1 ?
**Result** 0.0675

---

target: Adenosine receptor A2b (Homo sapiens) (UniProt P29275); experiment: Displacement of [3H]DPCPX from human adenosine A2B receptor expressed in HEK-293 cells at 1 uM; assay type: cell-based; settings: HEK293
measurementKind: inhibition (%)

1. CC(=O)Nc1cc(-c2ccc(OC(F)(F)F)cc2)nc(-c2ccc(OC(F)(F)F)cc2)n1 :: 4

(a) CC(=O)Nc1cc(-c2ccc3c(c2)OCO3)nc(-c2ccc3c(c2)OCO3)n1
(b) COc1cc(OC)cc(-c2cc(NC(C)=O)nc(-c3cc(OC)cc(OC)c3)n2)c1
**Query** Could you tell me which of these two has the smaller inhibition figure? First: a Second: b Your answer should be the label of the entry you select.
**Result** b

---

Molecular target: Adenosine receptor A1 (Homo sapiens) (UniProt P30542)
Sequence (whole entry): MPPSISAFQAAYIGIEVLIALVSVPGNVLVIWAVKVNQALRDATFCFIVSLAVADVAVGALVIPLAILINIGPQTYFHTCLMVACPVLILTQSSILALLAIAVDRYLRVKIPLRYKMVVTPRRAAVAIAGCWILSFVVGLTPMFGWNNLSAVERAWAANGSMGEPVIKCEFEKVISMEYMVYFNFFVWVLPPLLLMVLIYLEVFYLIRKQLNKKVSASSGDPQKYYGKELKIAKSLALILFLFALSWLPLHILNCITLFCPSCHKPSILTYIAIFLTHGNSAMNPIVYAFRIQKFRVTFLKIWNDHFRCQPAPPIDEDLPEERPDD
Assay: Displacement of [3H]DPCPX from human adenosine A1 receptor expressed in CHO cells at 1 uM
Format: cell-based
measurementKind: inhibition (%)

1. COc1ccc(OC)c(-c2cc(NC(C)=O)nc(-c3cc(OC)ccc3OC)n2)c1 :: 4
2. COc1cc(-c2cc(NC(C)=O)nc(-c3cc(OC)c(OC)c(OC)c3)n2)cc(OC)c1OC :: 14
3. COc1ccc(/C=C/c2cc(NC(C)=O)nc(/C=C/c3ccc(OC)cc3)n2)cc1 :: 16

(I) CCOc1ccc(-c2cc(NC(C)=O)nc(-c3ccc(OCC)cc3)n2)cc1
(II) COc1cccc(OC)c1-c1cc(NC(C)=O)nc(-c2c(OC)cccc2OC)n1
**Query** Lower inhibition: I or II ? Give the label under which the chosen entry appears.
**Result** II
